tested on: HT1080; experiment: relative viability vs DMSO control (72 h) (fraction); higher = more viable cells; conditions: 0.3704 µM
# relative viability listing for each entry below
metric name: relative viability

compound: Cc1nc(-c2cn3c(n2)-c2ccc(-c4cnn(C(C)(C)C(N)=O)c4)cc2OCC3)n(C(C)C)n1 [Taselisib]
observed result: 1.04

compound: Cc1ccc(F)c(NC(=O)Nc2ccc(-c3cccc4[nH]nc(N)c34)cc2)c1 [Linifanib]
observed result: 1.08

compound: COc1cc2c(Oc3ccc4[nH]c(C)cc4c3F)ncnc2cc1OCCCN1CCCC1 [Cediranib]
observed result: 1.1

compound: C[C@@H]1COCCN1c1cc(-c2ccnn2C)c2ccnc(-c3ccn[nH]3)c2n1
observed result: 0.28

compound: CC(C)N1CCN(Cc2cnc(-c3cc(-c4cccc5[nH]ccc45)cc4[nH]ncc34)o2)CC1 [Nemiralisib]
observed result: 1.05

compound: Cc1cc(C)c(/C=C2\C(=O)Nc3ccccc32)[nH]1 [Semaxanib]
observed result: 0.921

compound: Cc1cnc(Nc2ccc(OCCN3CCCC3)cc2)nc1Nc1cccc(S(=O)(=O)NC(C)(C)C)c1 [Fedratinib]
observed result: 1.03

compound: COc1c(OCCCN2CCOCC2)ccc2c1N=C(NC(=O)c1cnc(N)nc1)N1CCN=C21 [Copanlisib]
observed result: 0.964

compound: O=C(Cc1ccc(-c2ccc(OCCN3CCOCC3)cc2)cn1)NCc1ccccc1 [KX2-391]
observed result: 0.0565

====

system: VA-ES-BJ; assay: relative viability vs DMSO control (72 h) (fraction); higher = more viable cells; details: 10 µM

item smiles: COCc1c(-c2cc3cc(C)cc(OC)c3s2)c2c(N)ncnn2c1CN1CCNC(=O)C1
relative viability: 0.568

item smiles: CCN1CCN(Cc2ccc(Nc3ncc(F)c(-c4cc(F)c5nc(C)n(C(C)C)c5c4)n3)nc2)CC1
relative viability: 0.427

item smiles: Cc1cc(Nc2ncnc3ccc(NC4=NC(C)(C)CO4)cc23)ccc1Oc1ccn2ncnc2c1
relative viability: 1.01

item smiles: CCc1cc2c(cc1N1CCC(N3CCOCC3)CC1)C(C)(C)c1[nH]c3cc(C#N)ccc3c1C2=O
relative viability: 0.905

item smiles: Cc1cnc(Nc2ccc(OCCN3CCCC3)cc2)nc1Nc1cccc(S(=O)(=O)NC(C)(C)C)c1
relative viability: -0.0115

item smiles: COc1cc2c(Oc3ccc4[nH]c(C)cc4c3F)ncnc2cc1OCCCN1CCCC1
relative viability: 1.13

item smiles: CC[C@H](Nc1ncnc2[nH]cnc12)c1nc2cccc(F)c2c(=O)n1-c1ccccc1
relative viability: 0.705

item smiles: CN1CCN(c2ccc3nc(-c4c(N)c5c(F)cccc5[nH]c4=O)[nH]c3c2)CC1
relative viability: 0.313

====

system: RD-ES; assay: relative viability vs DMSO control (72 h) (fraction); higher = more viable cells; settings: 0.00017 µM
# relative viability listing for each entry below
metric name: relative viability

molecule: CCCS(=O)(=O)Nc1ccc(F)c(C(=O)c2c[nH]c3ncc(-c4ccc(Cl)cc4)cc23)c1F [Vemurafenib]
metric name: relative viability
observed result: 0.978
//
molecule: CC(=O)Nc1cccc(-n2c(=O)n(C3CC3)c(=O)c3c(Nc4ccc(I)cc4F)n(C)c(=O)c(C)c32)c1 [Trametinib]
metric name: relative viability
observed result: 0.979
//
molecule: CC(C)(C)c1cc(NC(=O)Nc2ccc(-c3cn4c(n3)sc3cc(OCCN5CCOCC5)ccc34)cc2)no1 [Quizartinib]
metric name: relative viability
observed result: 0.968
//
molecule: CCc1cc2c(cc1N1CCC(N3CCOCC3)CC1)C(C)(C)c1[nH]c3cc(C#N)ccc3c1C2=O [Alectinib]
metric name: relative viability
observed result: 0.994
//
molecule: Cc1ccc(F)c(NC(=O)Nc2ccc(-c3cccc4[nH]nc(N)c34)cc2)c1 [Linifanib]
metric name: relative viability
observed result: 1
//
molecule: C[C@@H](c1ccc2nccn2c1)n1nnc2ncc(-c3cnn(C)c3)nc21 [Volitinib]
metric name: relative viability
observed result: 0.975
//
molecule: CC(C)NC(=O)C1CCC(n2c(NC(=O)c3ccc(F)cc3)nc3ccc(CN4CCC(C(C)(C)O)CC4)cc32)CC1 (centres undefined) [Belizatinib]
metric name: relative viability
observed result: 1.01
//
molecule: COCc1c(-c2cc3cc(C)cc(OC)c3s2)c2c(N)ncnn2c1CN1CCNC(=O)C1 [Rogaratinib]
metric name: relative viability
observed result: 1.04
//
molecule: COc1cc2/c(=N/c3ccc(Br)cc3F)nc[nH]c2cc1OCC1CCN(C)CC1 [Vandetanib]
metric name: relative viability
observed result: 0.944

====

system: SK-LMS-1; experiment: relative viability vs DMSO control (72 h) (fraction); higher = more viable cells; details: 0.3704 µM
Where a name gives a salt, the structure may show the parent alone.
# relative viability listing for each entry below
metric name: relative viability

compound: C=CC(=O)Nc1cccc(Oc2nc(Nc3ccc(N4CCN(C)CC4)cc3)nc3ccsc23)c1
metric name: relative viability
observed result: 1.05
//
compound: Cn1cc(-c2cc3c(N4CCN(c5ncc([C@@](C)(N)c6ccc(F)cc6)cn5)CC4)ncnn3c2)cn1
metric name: relative viability
observed result: 0.911
//
compound: O=C(Nc1cnn2ccc(N3CCC[C@@H]3c3cc(F)ccc3F)nc12)N1CC[C@H](O)C1
metric name: relative viability
observed result: 1.06
//
compound: COc1cccc2c1C(=O)c1c(O)c3c(c(O)c1C2=O)C[C@@](O)(C(=O)CO)C[C@@H]3O[C@H]1C[C@H](N)[C@H](O)[C@H](C)O1 [Doxorubicin Hydrochloride]
metric name: relative viability
observed result: 0.313
//
compound: Cn1cnc2c(F)c(Nc3ccc(Br)cc3F)c(C(=O)NOCCO)cc21
metric name: relative viability
observed result: 0.646
//
compound: N#CC[C@H](C1CCCC1)n1cc(-c2ncnc3[nH]ccc23)cn1
metric name: relative viability
observed result: 1.03
//
compound: COc1cc2nccc(Oc3ccc(NC(=O)Nc4cc(C)on4)c(Cl)c3)c2cc1OC
metric name: relative viability
observed result: 1.08
//
compound: COc1c(OCCCN2CCOCC2)ccc2c1N=C(NC(=O)c1cnc(N)nc1)N1CCN=C21
metric name: relative viability
observed result: 0.454
//
compound: O=C(Cc1ccc(-c2ccc(OCCN3CCOCC3)cc2)cn1)NCc1ccccc1
metric name: relative viability
observed result: 0.361
//
compound: C=CC(=O)N1CCC[C@@H](n2nc(-c3ccc(Oc4ccccc4)cc3)c3c(N)ncnc32)C1
metric name: relative viability
observed result: 1.05
//
compound: CC1(C)CNc2cc(NC(=O)c3cccnc3NCc3ccncc3)ccc21
metric name: relative viability
observed result: 1.04
//
compound: C[C@@H]1CCN(C(=O)CC#N)C[C@@H]1N(C)c1ncnc2[nH]ccc12
metric name: relative viability
observed result: 1.07
//
compound: COc1cc2/c(=N/c3ccc(Br)cc3F)nc[nH]c2cc1OCC1CCN(C)CC1
metric name: relative viability
observed result: 1.03

====

# relative viability listing for each entry below
tested on: KHOS-240S; assay: relative viability vs DMSO control (72 h) (fraction); higher = more viable cells; conditions: 1.111 µM

item smiles: CCc1cc2c(cc1N1CCC(N3CCOCC3)CC1)C(C)(C)c1[nH]c3cc(C#N)ccc3c1C2=O
relative viability: 0.996
--
item smiles: CNC(=O)c1cc(Oc2ccc(NC(=O)Nc3ccc(Cl)c(C(F)(F)F)c3)c(F)c2)ccn1
relative viability: 0.96
--
item smiles: Cc1cnc(Nc2ccc(OCCN3CCCC3)cc2)nc1Nc1cccc(S(=O)(=O)NC(C)(C)C)c1
relative viability: 0.412
--
item smiles: CCCS(=O)(=O)Nc1ccc(F)c(C(=O)c2c[nH]c3ncc(-c4ccc(Cl)cc4)cc23)c1F
relative viability: 1.07

====

system: SK-ES-1; assay: relative viability vs DMSO control (72 h) (fraction); higher = more viable cells; settings: 3.333 µM
Where a name gives a salt, the structure may show the parent alone.
Simple rule here: relative viability less than 0.8 is fulfilled, otherwise not fulfilled.

compound: CCCS(=O)(=O)Nc1ccc(F)c(C(=O)c2c[nH]c3ncc(-c4ccc(Cl)cc4)cc23)c1F
discrete label: not fulfilled

compound: C=CC(=O)N1CCC[C@@H](n2nc(-c3ccc(Oc4ccccc4)cc3)c3c(N)ncnc32)C1
discrete label: not fulfilled

compound: COc1cccc2c1C(=O)c1c(O)c3c(c(O)c1C2=O)C[C@@](O)(C(=O)CO)C[C@@H]3O[C@H]1C[C@H](N)[C@H](O)[C@H](C)O1 [Doxorubicin Hydrochloride]
discrete label: fulfilled

compound: Cc1cnc(Nc2ccc(OCCN3CCCC3)cc2)nc1Nc1cccc(S(=O)(=O)NC(C)(C)C)c1
discrete label: fulfilled

compound: COc1cc2nccc(Oc3ccc(NC(=O)Nc4cc(C)on4)c(Cl)c3)c2cc1OC
discrete label: not fulfilled

compound: CN1CCC(COc2cnc(-c3cccc(Cn4nc(-c5cccc(C#N)c5)ccc4=O)c3)nc2)CC1
discrete label: not fulfilled

compound: COc1cc2c(Oc3ccc4[nH]c(C)cc4c3F)ncnc2cc1OCCCN1CCCC1
discrete label: fulfilled

compound: N#CC[C@H](C1CCCC1)n1cc(-c2ncnc3[nH]ccc23)cn1
discrete label: not fulfilled

compound: Nc1cc(C(F)(F)F)c(-c2cc(N3CCOCC3)nc(N3CCOCC3)n2)cn1
discrete label: fulfilled
